ASSAY_TEXT: High-throughput drug toxicity screening in the BPDCN cell line Cal-1 (AID 1224825);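 also: cells exposed to compounds for 48 h; 100% = DMSO and 0% = bortezomib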
MEASUREMENT_CONDITIONS: Cal-1 BPDCN cell viability, qHTS; at 45.8 µM (top of the series) unless noted
QUANTITY: viability (% of control)

| MOLECULE | viability (% of control) |
| --- | --- |
| CS(=O)(=O)CCNCc1ccc(-c2ccc3ncnc(Nc4ccc(OCc5cccc(F)c5)c(Cl)c4)c3c2)o1 | 2.82% |
| CC(C(=O)O)c1cccc(C(=O)c2ccccc2)c1 (stereo unspecified) | 103% |
| N[C@@H](Cc1c[nH]c2ccc(O)cc12)C(=O)O | 35.8% |
| COc1ccccc1N1CCN(CC(O)COc2cccc3ccccc23)CC1 (stereo unspecified) | 112% |
| COc1cc2c(c(OC)c1OC)-c1ccc(OC)c(=O)cc1[C@@H](NC(C)=O)CC2 | 11.2% |

**Q:** In one line, give reported viability (% of control) of the entry Cn1c(=O)c2c(ncn2C)n(C)c1=O .
**A:** 116%

**Q:** In one line, give reported viability (% of control) of the entry COc1cc2nc(N3CCN(C(=O)c4ccco4)CC3)nc(N)c2cc1OC .
**A:** 5.38%
